Values compiled from ChEMBL document CHEMBL1124738.

# Species: Rattus norvegicus
# Protocol summary: Ability to inhibit iron-dependent lipid peroxidation in rat brain homogenate using MDA (malondialdehyde) formation assay
# Type: functional
Item-by-item account of pIC50
pIC50 here is simply -log10 of the concentration when that concentration is written in mol/L.

Known results for compounds:
C[C@@H]1C[C@H]2[C@@H]3CCC4=CC(=O)C=C[C@]4(C)C3=CC[C@]2(C)[C@H]1C(=O)CN1CCN(c2cc(N3CCCC3)nc(N3CCCC3)n2)CC1 [TIRILAZAD] = 4.74
CC(=O)N(O)CCCCCNC(=O)CCC(=O)N(O)CCCCCNC(=O)CCC(=O)N(O)CCCCCN [DEFEROXAMINE] = 3.95

Field: next compound
State the recorded pIC50 for this entry: CCNc1cccnc1N1CCN(CC(=O)[C@H]2[C@H](C)CC3C4CCC5=CC(=O)C=C[C@]5(C)C4=CC[C@@]32C)CC1.O=C(O)/C=C/C(=O)O (stereo partly drawn)
4.82
